Target: T1, human TGFβ3, mature dimeric form (human, UniProt P10600 301-412)
T1 construct: Peprotech, expressed in E. coli; also called TGFb3
T1 sequence: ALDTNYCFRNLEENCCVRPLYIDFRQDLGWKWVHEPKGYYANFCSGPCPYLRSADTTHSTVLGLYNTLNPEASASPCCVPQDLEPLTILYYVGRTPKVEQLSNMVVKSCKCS
Experiment: BIAcore T200
Protocol: For binding affinity determinations of all humanized 2A10 antibodies, Surface Plasmon Resonance (SPR) measurement with a BIAcore™-T200 instrument was used. […] Association rates (ko.) and dissociation rates (koff) were calculated using a simple one-to-one Langmuir binding model (BIAcore T200 evaluation software version 2.0) to determine the equilibrium dissociation constant (KD), which was calculated as the ratio koff/kₒₙ.
measured.endpoint: Kd (pM)
Give bare numbers, in pM.

Answered examples (3):
- h2A10.v2.9 (antibody, human IgG1, kappa, N297G, V domains shown) VH: EVQLLESGGGLVQPGGSLRLSCAASGFDFNSYGMSWVRQAPGKGLELVADIVSKTYNYTTYYSDSVKDRFTISRDDSKSTLYLQMNSLRAEDTAVYYCTVAPGGSFDYWGQGTLVTVSS VL: DIQLTQSPSSLSASVGDRVTITCRASQSVSISRFNLMHWYQHKPGKQPKLLIYRASNLASGIPSRFSGSGSGTDFTLTISSLQPEDFATYYCQHSRESPWTFGGGTKVEIKR: 0.7
- h2A10.v2.4 (antibody, human IgG1, kappa, N297G, V domains shown) VH: EVQLLESGGGLVQPGGSLRLSCAASGFDFNSYGMSWVRQAPGKGLELVADIVSKTYNYTTYYSDSVKDRFTISRDDSKSTVYLQMNSLRAEDTAVYYCTVAPGGSFDYWGQGTLVTVSS VL: DIQLTQSPSSLSASVGDRVTITCRASQSVSISRFNLMHWYQHKPGKQPKLLIYRASNLASGVPSRFSGSGSGTDFTLTISSLQPEDFATYYCQHSRESPWTFGGGTKVEIKR: 2.1
- 2A10 (antibody, V domains shown, anti-TGFβ3; also called rat 2A10; r2A10) VH: EVQLVESGGGLVQPKGSLKLSCAASGFDFNSYGMSWVRQAPGKGLDLVADIVSKTYNYTTYYSDSVKDRFTISRDDSQSMVYLQMDNLKTEDTALYYCTVAPGGSFDYWGQGVMVTVSS VL: DIVLTQSPALAVSLGQRATISCRASQSVSISRFNLMHWYQHKPGQQPKLLIYRASNLASGIPARFSGSGSGTDFTLTINPVQADDLATYYCQHSRESPWTFGGGTKLEIK: 1.2

Continue with the next binder.
Exercise: I have this binder here, h2A10.v2.2 (antibody, human IgG1, kappa, N297G, V domains shown) VH: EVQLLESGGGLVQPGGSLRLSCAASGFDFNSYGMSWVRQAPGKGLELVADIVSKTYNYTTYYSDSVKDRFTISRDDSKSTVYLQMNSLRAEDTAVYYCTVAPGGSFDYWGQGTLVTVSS VL: DIQLTQSPSSLSASVGDRVTITCRASQSVSISRFNLMHWYQQKPGKQPKLLIYRASNLASGIPSRFSGSGSGTDFTLTISSLQPEDFATYYCQHSRESPWTFGGGTKVEIKR , and I need its recorded Kd.
Solution: 1.2
